target: NDM-1 (Klebsiella pneumoniae, UniProt C7C422); experiment: biochemical; type: biochemical; conditions: fluorescence assay, CCF2-FA substrate, 1 pM enzyme, 2 hours at 25° C.; read-out: NDM-1 IC50
Sequence (C7C422 whole entry, looked up, species assumed): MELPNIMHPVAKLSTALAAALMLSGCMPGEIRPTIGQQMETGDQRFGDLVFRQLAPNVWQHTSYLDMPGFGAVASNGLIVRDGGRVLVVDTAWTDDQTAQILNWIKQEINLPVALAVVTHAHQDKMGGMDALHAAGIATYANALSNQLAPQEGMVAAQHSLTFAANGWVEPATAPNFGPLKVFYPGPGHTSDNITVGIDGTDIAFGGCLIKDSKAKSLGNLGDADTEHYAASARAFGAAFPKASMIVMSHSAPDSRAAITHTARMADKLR
Value Type: pIC50
Convention used: pIC50 is expressed as -log10 of the molar concentration.

Sample answers from the record:
compound=C[C@H](CN)NS(=O)(=O)c1ccc(-c2cccc3[nH]c(CN)nc23)c(-c2nn[nH]n2)c1S(N)(=O)=O test_system="NDM-1 (Klebsiella pneumoniae, UniProt C7C422)" assay_result=10.25
compound=Cn1c(N)nc2c(-c3ccc(S(=O)(=O)NC[C@@H](O)CN)c(S(N)(=O)=O)c3-c3nn[nH]n3)cccc21 test_system="NDM-1 (Klebsiella pneumoniae, UniProt C7C422)" assay_result=10.21

pIC50 of NC[C@@H]1C[C@@H](NS(=O)(=O)c2ccc(-c3cccc4[nH]c(N)nc34)c(-c3nn[nH]n3)c2S(N)(=O)=O)CN1 on NDM-1 (Klebsiella pneumoniae, UniProt C7C422)?
10.38

pIC50 of Nc1nc2c(-c3ccc(S(=O)(=O)NCC4(N)CCOC4)c(S(N)(=O)=O)c3-c3nnn[nH]3)cccc2s1.O=CO (stereo not shown) [Example 114, formate] on NDM-1 (Klebsiella pneumoniae, UniProt C7C422)?
10.19
